METHOD SUMMARY: soluble on expression in E. coli; label from the status in PepcDB or PDB records
QUANTITY: soluble on expression in E. coli

Would you please look over these solved cases?
[[record]]
sequence_record = "MGSDKIHHHHHHLSSPQYRINMQKYVFRIHPLNTYQLSFFPNYEVNMYKKLNPMIGDRVYRSKGLVMHVGVMVDRDLVAHNSPDNNVEVISMEHFSQGKKVELKRSIGVDPTALKAQLQRISEENRRYCPISFNCEHFANELLGTKDGSEQLLAALLVGSFGLTCKNKWLGLATAGATGLLLCNGLRKYSTT"
measured_value = "not soluble"

[[record]]
sequence_record = "MGSSHHHHHHSSGLVPRGSKTFIIGISGVTNSGKTTLAKNLQKHLPNCSVISQDDFFKPESEIETDKNGFLQYDVLEALNMEKMMSAISCWMESARHSVVSTDQESAEEIPILIIEGFLLFNYKPLDTIWNRSYFLTIPYEECKRRRSTRVYQPPDSPGYFDGHVWPMYLKYRQEMQDITWEVVYLDGTKSEEDLFLQVYEDLIQEL"
measured_value = "soluble"

[[record]]
sequence_record = "MAVELNQLRDQIDEVDKQMVELLARRLALVEQVGQVKSRYGLPIYAPDREAAMLASRRAEAESKGVPPQLIEDILRRTMRESYASEKDSGFKCLNPELRSVVIVGGNGQLGRLFGRMFKLSGYQVKVLGSQDWDKADELLSDAGLVVVTVPIHLTLGVIEKLRQLPDDCILCDLTSIKAKPLAAMLQVHKGPVVGLHPMFGPDVPSLAKQVIVYCDGRGNEHYQWLLQQFAIWGASLCQIDADEHDRGMTLIQALRHFTSFAYGLHLTKENPNLAQLLKLSSPIYRLELAMVGRLFGQDPHLYGDIILSSPENIEMIQRFHRCLSDAVELVSAGDKASFVAQFERVSQWFGDYSQQFMHESQNLLKQANDAIHRG"
measured_value = "not soluble"

[[record]]
sequence_record = "MTDDRVEQVLEAARRLVAAFARNDAEAYFAAFSEDASFIFHNWPQPLRSRAAYRKLWERWRREDGFEVLACESSNTCVSLQGDLAIFSHDVATRLRLQGTESLNRERETILFRLEQQEGRWLACHEHLSAMPEYLPSTS"
measured_value = "not soluble"

[[record]]
sequence_record = "MIYLRKLKKEDLMSLWEMAYSQLNPVWKQYDAPYYDDYQYFSNFKEFELQKSESILSNSNRLGIFVDDKLVGTVSRYWVCKETRWMELGIGIYDKKFWNTGIGKVAMLQWIDRTFQDYLELEHLGLTTWSGNIGMMKLAEKLRMKKEAHIPKVRYYQGKYFDSIKYGILREDWEKINDGYYQINGNS"
measured_value = "not soluble"

[[record]]
sequence_record = "MGSDKIHHHHHHMLERRHIARDISYSHSAETRPGRIMIRLMENTTGRLRLIKRAKGYDMEVASGRSFWDVIVERYGLSLDVVGGSLDAIPRDKPVILIANHPYGILDGLMMGHILSRTRCDFRMLAHQVFRKAEDLNKVILPIDFAETKEAMKVNLQTRKDALDYLGQGGAIGIFPGGTVSTASKPFAHPMDPGWRGFTARMVAKSDAVVVPLYFDGHTSRLFQIASHLHYTLRMGLLIKEFKKRVDTPVKVVIGEPIGRDVLDPLAKDSKAMMDFLRKATYELSPTPLKSYDYGFEFEEKHRA"
measured_value = "not soluble"

[[record]]
sequence_record = "MDPKFLVVEIDSKERALQLVQVMLENGFARFMLLDDLSRHPTLDRIQREEPRISRDELRETASSPVTFETRHSPYPVHEQKVLFPSFSQVSNSMVTSTGIRQEASSVGVGPIEDDDIVEEEEEEDIRLTSKPCVKRRYDHHAEEQEYRDQLMSLLSGEPEIVPIGVNSNDEPSGSNSDSAAKKAKSVGDYHECQLCGVRVKTPRSGRWNLQMHVIALHCVGRQYKCKQCDYLDYRKSTMRKHTVSQHGSDIPPHNITDNIMKAEWHAAMIKCFPEFAHRTGFLN"
measured_value = "not soluble"

[[record]]
sequence_record = "PFTYSIEATRNLATTERCIQDIRNAPVRNRSTQFQLAQQNMLAYTFGEVIPGFASAGINGMDYRDVIGRPVENAVTEGTHFFRDDFRVDSNAKAKVAGDIFEIVSSAVMWNCAARWNSLMVGEGWRSQPRYSRPTLSPSPRRQVAVLNLPRSFDWVSLLVPESQEVIEEFRAGLRKDGLGLPTSTPDLAVVVLPEEFQNDEMWREEIAGLTRPNQILLSGAYQRLQGRVQPGEISLAVAFKRSLRSDRLYQPLYEANVMQLLLEGKLGAPKVEFEVHTLAPEGTNAFVTYEAASLYGLAEGRSAVHRAIRELYVPPTAADLARRFFAFLNERMELVNG"
measured_value = "soluble"

[[record]]
sequence_record = "MGSDKIHHHHHHMSFLIGPFLKSFIDNVIKDTVIPVKGSVVYCGLFGYAEHSGIYIGDNKIVHLDGSGIIEVVSPQQFIERLSGLNPAMSIYVSCNGSSATGTNTIAKRAKKMVGKSRKYHVILDNCHQFTSGCITGNFDNADNFLWMLKSTAGNKLSTNKWRVWERKYSS"
measured_value = "not soluble"

[[record]]
sequence_record = "MSLCELLGMSANVPTDIVFSFTGLMQRGGGTGPHRDGWGIAFYEGRGVRLFQDPLASVDSEVARLVQRFPIKSETVIGHIRQANVGKVGLSNTHPFIRELGGRYWTFAHNGQLADFQPKPGFYRPVGETDSEAAFCDLLNRVRRAFPEPVPVEVLLPVLISACDEYRKKGVFNALISDGDWLFTFCSSKLAYITRRAPFGPARLKDADLTVDFHAETTPDDVVTVIATEPLTDNENWTLQQSGEWVLWWGGEVLAKGEGGSHHHHHH"
measured_value = "soluble"


Req: Query soluble on expression in E. coli for `SNAMARKKNTSDQSRSQAANTPIAGTYEGEYSVIELEADSYTTDGWLISINGVPSSHIVLGQPQALEFEYMRWIATGARAFIDAHQDASKLRITHLGGGACTMARYFADVYPQSRNTVVELDAELARLSREWFDIPRAPRVKIRVDDARMVAESFTPASRDVIIRDVFAGAITPQNFTTVEFFEHCHRGLAPGGLYVANCGDHSDLRGAKSELAGMMEVFEHVAVIADPPMLKGRRYGNIILMGSDTEFFSSNSTEASAITRELLGGGVPAQYKDESWVRKFASGAQARHDGVSTLQMPSDTPQHPAETPEHSNTQP`
Resp: soluble

Req: Query soluble on expression in E. coli for `MGENVLICLCGSVNSINISHYIIELKSKFDEVNVIASTNGRKFINGEILKQFCDNYYDEFEDPFLNHVDIANKHDKIIILPATSNTINKIANGICDNLLLTICHTAFEKLSIFPNMNLRMWENPVTQNNIRLLKDYGVSIYPANISESYELASKTFKKNVVAPEPYKVLEFI`
Resp: not soluble
